# Test system: strains of Parvimonas micra
# protocol summary: MIC against anaerobes, agar dilution (CLSI), clinical isolates
# Type: cell-based
# stated conditions: Parvimonas micra strain 1
property name: MIC

Query (compound): Cc1ncc([N+](=O)[O-])n1CCO [MTZ, metronidazole, reference compound] ; field requested: MIC 1 to 4 µg/mL

Would you kindly repeat that for COc1ccc2ncc(=O)n(CCN[C@@H]3CC[C@@H]4[C@@H](C3)OC(=O)N4c3ccc4c(n3)NC(=O)CO4)c2c1 ? < 1 µg/mL

Would you kindly repeat that for CN[C@H](CC(C)C)C(=O)N[C@H]1C(=O)N[C@@H](CC(N)=O)C(=O)N[C@H]2C(=O)N[C@H]3C(=O)N[C@H](C(=O)N[C@H](C(=O)O)c4cc(O)cc(O)c4-c4cc3ccc4O)[C@H](O)c3ccc(c(Cl)c3)Oc3cc2cc(c3O[C@@H]2O[C@H](CO)[C@@H](O)[C@H](O)[C@H]2O[C@H]2C[C@](C)(N)[C@H](O)[C@H](C)O2)Oc2ccc(cc2Cl)[C@H]1O [VAN, vancomycin, reference compound] ? < 1 µg/mL

Would you kindly repeat that for Cc1ccc2ncc(=O)n(CCN[C@H]3CC[C@H]4[C@@H](C3)OC(=O)N4c3ccc4c(n3)NC(=O)CO4)c2c1 ? > 64 µg/mL

====

# System: Haemophilus influenzae ATCC 49247
# protocol summary: MIC, broth microdilution (CLSI) versus planktonic bacteria
# Type: cell-based
# stated conditions: ATCC49247; Haemophilus influenzae ATCC 49247; 16-20 h; mode of three independent experiments; read-out: MIC, Hi ATCC 49247
property name: MIC

Query (molecule): O=C1COc2ccc(N3C(=O)O[C@@H]4C[C@@H](NCCn5c(=O)cnc6ccc(F)cc65)CC[C@@H]43)nc2N1 ; field requested: MIC < 1 µg/mL

Would you kindly repeat that for COc1cnc2ccc(=O)n(CCN[C@H]3CC[C@H]4[C@@H](C3)OC(=O)N4c3ccc4c(n3)NC(=O)CO4)c2c1 ? < 1 µg/mL

Would you kindly repeat that for N#Cc1ccc2ccc(=O)n(CCN[C@H]3CC[C@H]4[C@@H](C3)OC(=O)N4c3ccc4c(n3)NC(=O)CO4)c2c1 ? < 1 µg/mL

Would you kindly repeat that for COC(=O)c1ccc2ccc(=O)n(CCN[C@@H]3CC[C@@H]4[C@@H](C3)OC(=O)N4c3ccc4c(n3)NC(=O)CO4)c2c1 ? < 1 µg/mL

Would you kindly repeat that for NCCOc1ccc2ccc(=O)n(CCN[C@H]3CC[C@H]4[C@@H](C3)OC(=O)N4c3ccc4c(n3)NC(=O)CO4)c2c1 ? 10 to 100 µg/mL

Would you kindly repeat that for NCCOc1ccc2ccc(=O)n(CCN[C@H]3CC[C@H]4[C@@H](C3)OC(=O)N4c3ccc4c(n3)NC(=O)CO4)c2n1 ? 10 to 100 µg/mL

====

Assignment: determine reported MIC for the given compounds.
# Tested on: Staphylococcus aureus ATCC 29213
# protocol summary: MIC, broth microdilution (CLSI) versus planktonic bacteria
# Format: cell-based
# stated conditions: ATCC29213; Staphylococcus aureus ATCC 29213; 16-20 h; mode of three independent experiments; read-out: MIC, Sa ATCC 29213

Query (compound): CSc1ncc2ccc(=O)n(CCN[C@H]3CC[C@H]4[C@@H](C3)OC(=O)N4c3ccc4c(n3)NC(=O)CO4)c2n1 ; field requested: MIC < 1 µg/mL

Would you kindly repeat that for N#Cc1cnc2ccc(=O)n(CCN[C@H]3CC[C@H]4[C@@H](C3)OC(=O)N4c3ccc4c(n3)NC(=O)CO4)c2c1 ? < 1 µg/mL

Would you kindly repeat that for COc1ccc2ccc(=O)n(CCCN[C@H]3CC[C@H]4[C@H](C3)OC(=O)N4c3ccc4c(n3)NC(=O)CS4)c2n1 ? < 1 µg/mL

Would you kindly repeat that for O=C1COc2ccc(N3C(=O)O[C@@H]4C[C@@H](NCCn5c(=O)ccc6ccc(OCCO)nc65)CC[C@@H]43)nc2N1 ? 1 to 10 µg/mL

Would you kindly repeat that for O=C1COc2ccc(N3C(=O)O[C@@H]4C[C@H](NCCn5c(=O)ccc6ccc(O)cc65)CC[C@H]43)nc2N1 ? < 1 µg/mL

Would you kindly repeat that for COc1ncc2ccc(=O)n(CCN[C@@H]3CC[C@@H]4[C@@H](C3)OC(=O)N4c3ncc4c(n3)NC(=O)CO4)c2n1 ? < 1 µg/mL

Would you kindly repeat that for Cc1ccc2ncc(=O)n(CCN[C@H]3CC[C@H]4[C@@H](C3)OC(=O)N4c3ccc4c(n3)NC(=O)CO4)c2c1 ? < 1 µg/mL

Would you kindly repeat that for O=C1COc2ccc(N3C(=O)O[C@H]4C[C@@H](NCCn5c(=O)ccc6ncc(OC(F)F)cc65)CC[C@@H]43)nc2N1 ? < 1 µg/mL

Would you kindly repeat that for COc1ccc2ccc(=O)n(CCN(CCO)[C@H]3CC[C@H]4[C@@H](C3)OC(=O)N4c3ccc4c(n3)NC(=O)CO4)c2n1 ? < 1 µg/mL

Would you kindly repeat that for O=C1COc2ccc(N3C(=O)O[C@@H]4C[C@H](NCCn5c(=O)cnc6ccc(F)cc65)CC[C@H]43)nc2N1 ? < 1 µg/mL

Would you kindly repeat that for COc1ccc2ccc(=O)n(CCN[C@H]3CC[C@H]4[C@H](C3)OC(=O)N4c3ccc4c(n3)NC(=O)C(C)(C)O4)c2n1 ? < 1 µg/mL

Would you kindly repeat that for N#Cc1cccc(-c2cccc(CN[C@H]3CC[C@H]4[C@@H](C3)OC(=O)N4c3ccc4c(n3)NC(=O)CO4)c2O)n1 ? < 1 µg/mL

Would you kindly repeat that for COc1ncc2ccc(=O)n(CCN[C@H]3CC[C@H]4[C@@H](C3)OC(=O)N4c3ccc4c(n3)NC(=O)CO4)c2n1 ? 1 to 10 µg/mL

Numbers sourced from patent US10487093B2.
